Tested on: S. aureus3137
Protocol Details: MIC against S. aureus3137
Format: cell-based, S. aureus
Condition Notes: Table 2; S. aureus3137, MSSA; in combination with NXL-104
Assay Metric: MIC (µg/mL)

CC(C)(O/N=C(\C(=O)N[C@@H]1C(=O)N2C(C(=O)[O-])=C(C[n+]3ccc4n3CCN4Cc3ccc(C(=N)N)cc3)CS[C@H]12)c1csc(N)n1)C(=O)O
32.00

a. CC(C)(O/N=C(\C(=O)N[C@@H]1C(=O)N2C(C(=O)[O-])=C(C[n+]3ccc4c(ccn4Cc4cc(C(=N)N)co4)c3)CS[C@H]12)c1csc(N)n1)C(=O)O
b. CC(C)(O/N=C(\C(=O)N[C@@H]1C(=O)N2C(C(=O)[O-])=C(C[n+]3ccc4c(ccn4Cc4cc(C(=N)N)cs4)c3)CS[C@H]12)c1csc(N)n1)C(=O)O
c. CC(C)(O/N=C(\C(=O)N[C@@H]1C(=O)N2C(C(=O)[O-])=C(C[n+]3ccccc3)CS[C@H]12)c1csc(N)n1)C(=O)O [CAZ, ceftazidime, reference compound]
Inquiry: Order the entries by their reported MIC, beginning at the minimum. Answer by listing the labels in the order asked for.
Reply text: b, a, c

* * *

Tested on: E. cloacae 2044
Protocol Details: MIC against E. cloacae 2044
Type: cell-based
Condition Notes: Table 2; E. cloacae 2044, Caz S, IMP S; in combination with NXL-104
Assay Metric: MIC (µg/mL)

CC(C)(O/N=C(\C(=O)N[C@@H]1C(=O)N2C(C(=O)[O-])=C(C[n+]3ccc4n3CCN4Cc3ccc(C(=N)N)cc3)CS[C@H]12)c1csc(N)n1)C(=O)O
0.12

P. CC(C)(O/N=C(\C(=O)N[C@@H]1C(=O)N2C(C(=O)[O-])=C(C[n+]3ccc4c(ccn4Cc4cc(C(=N)N)cs4)c3)CS[C@H]12)c1csc(N)n1)C(=O)O
Q. CC(C)(O/N=C(\C(=O)N[C@@H]1C(=O)N2C(C(=O)[O-])=C(C[n+]3ccccc3)CS[C@H]12)c1csc(N)n1)C(=O)O [CAZ, ceftazidime, reference compound]
Inquiry: // task: argmin of MIC over [ P , Q ] Answer = label.
Reply text: P

* * *

Measured MIC, listed per entry for reference.
System: E. cloacae 2705
Protocol Details: MIC against E. cloacae 2705
Type: cell-based
Condition Notes: Enterobacter cloacae; Table 3; E. cloacae 2705, VIM-1, KPC-3type; alone; read-out: MIC

Inquiry: I have this molecule here, CC(C)(O/N=C(\C(=O)N[C@@H]1C(=O)N2C(C(=O)[O-])=C(C[n+]3ccc4n3CCN4Cc3ccc(C(=N)N)cc3)CS[C@H]12)c1csc(N)n1)C(=O)O , and I need its recorded MIC.
Reply text: > 32 µg/mL

Inquiry: Likewise for CC(C)(O/N=C(\C(=O)N[C@@H]1C(=O)N2C(C(=O)[O-])=C(C[n+]3ccc4c(ccn4Cc4cc(C(=N)N)co4)c3)CS[C@H]12)c1csc(N)n1)C(=O)O ?
Reply text: > 32 µg/mL

Inquiry: And CC(C)(O/N=C(\C(=O)N[C@@H]1C(=O)N2C(C(=O)[O-])=C(C[n+]3ccc4c(ccn4Cc4cc(C(=N)N)cs4)c3)CS[C@H]12)c1csc(N)n1)C(=O)O ?
Reply text: > 32 µg/mL

Inquiry: Same for CO/N=C(\C(=O)N[C@@H]1C(=O)N2C(C(=O)[O-])=C(C[n+]3ccc4c(ccn4Cc4cc(C(=N)Nc5ccccc5)cs4)c3)CS[C@H]12)c1nc(N)sc1Cl
Reply text: > 32 µg/mL

Inquiry: Also need CO/N=C(\C(=O)N[C@@H]1C(=O)N2C(C(=O)[O-])=C(C[n+]3ccc4c(ccn4Cc4cc(C(=N)Nc5nccs5)cs4)c3)CS[C@H]12)c1nc(N)sc1Cl , thanks.
Reply text: > 32 µg/mL

Inquiry: Try the molecule CC(C)(O/N=C(\C(=O)N[C@@H]1C(=O)N2C(C(=O)[O-])=C(C[n+]3ccc4c(ccn4Cc4ccc(C(=N)N)cc4)c3)CS[C@H]12)c1csc(N)n1)C(=O)O
Reply text: > 32 µg/mL

Inquiry: Then CC(C)(O/N=C(\C(=O)N[C@@H]1C(=O)N2C(C(=O)[O-])=C(C[n+]3ccc4n(Cc5ccc(C(=N)N)cc5)ccn43)CS[C@H]12)c1csc(N)n1)C(=O)O ?
Reply text: > 32 µg/mL

All values here come from patent USRE48097E1.
